experiment: Permeability in artificial membrane assessed as diffusion rate by PAMPA assay; format: ADME; details: read-out: permeability
quantity_measured: Papp (×10⁻⁶ cm/s)
Unit ×10⁻⁶ cm/s implied. Number only.

Dear colleague, I am looking for the recorded Papp of the following molecule: C[C@H]1CC[C@H](NC(=O)c2cnc(N3CCC(CO)CC3)cn2)CC1 25.5

* * *

experiment: Lipophilicity, log D of the compound; assay type: physicochemical; settings: octanol/water
quantity_measured: logD
Enter a number only.

Known logD results, listed for orientation:
[
  {
    "compound": "CC(C)(CNC(=O)c1cnc2ccccc2n1)c1ccccc1",
    "quantity_measured": "logD",
    "value_reported": 4
  },
  {
    "compound": "C[C@H]1CC[C@H](NC(=O)c2cnc(N3CCC(CO)CC3)cn2)CC1",
    "quantity_measured": "logD",
    "value_reported": 3.3
  },
  {
    "compound": "CC(CN(C)C)N(C)c1cnc(C(=O)NCC(C)(C)c2ccccc2)cn1 (stereo unspecified)",
    "quantity_measured": "logD",
    "value_reported": 2
  },
  {
    "compound": "O=C(NCC1CC1)c1cncc(NCCc2cccc(O)c2)n1",
    "quantity_measured": "logD",
    "value_reported": 3.2
  },
  {
    "compound": "CC(C)(CNC(=O)c1cnc(N2CCC(CO)CC2)cn1)c1ccccc1",
    "quantity_measured": "logD",
    "value_reported": 3.5
  }
]

Would you mind telling me what logD value was observed for CC(C)(CNC(=O)c1cncc(-c2ccccc2)n1)c1ccccc1 ? 2.6

Dear colleague, I am looking for the recorded logD of the following compound: C[C@H]1CC[C@H](NC(=O)c2cnc(N3CCCCC3)cn2)CC1 4.4

Find the recorded logD belonging to CC(C)(CNC(=O)c1cncc(N2CCCCC2)n1)c1ccccc1 and report it. 4.4

Which logD reading was recorded for the compound CC(C)(CNC(=O)c1cnc(-c2ccccc2)cn1)c1ccccc1 ? 3.4

Requested read-out: logD. Entry: CCCCN(C)c1cncc(C(=O)NC2CCCCCC2)n1 3.8

So what's the measured logD for this one? CC(C)(CNC(=O)c1cncc(N[C@@H](CO)c2ccccc2)n1)c1ccccc1 3.6

Where these numbers come from: ChEMBL document CHEMBL1138393
